Attribution: patent US20230365620A1

Measured On: CDK8 (Homo sapiens)
Protocol: LANTHASCREEN Eu Kinase Binding Assay (competitive kinase binding, Tracer displacement)
Set-up: purchased INVITROGEN
Condition: displacing the Tracer from binding to the target kinase; read-out: Enzyme IC50
The following compounds are shown together with reported IC50 values.

What does the record list as IC50 for C[C@]12CC[C@H](O)CC1=CC[C@@H]1[C@@H]2CC[C@]2(C)C(c3ccc4c(N)n[nH]c4c3)=CC[C@@H]12 [Compound 5] ?
701 to 2000 nM

Param item: C[C@]12CC[C@H]3[C@@H](CC=C4C[C@@H](O)CC[C@@]43C)[C@@H]1CC[C@@H]2c1ccc2[nH]ncc2c1 [Compound 12]
> 6000 nM

Param item: C[C@]12CC[C@H]3[C@@H](CC=C4C[C@@H](O)CC[C@@]43C)[C@@H]1CC[C@@H]2c1ccc2cnncc2c1 [Compound 9]
> 6000 nM

Param item: C[C@]12CC[C@H](O)CC1=CC[C@@H]1[C@@H]2CC[C@]2(C)C(c3ccc4cn[nH]c4c3)=CC[C@@H]12 [Compound 7]
> 6000 nM

Param item: CN(C)[C@H]1CC[C@@]2(C)[C@@H](CC[C@@H]3[C@@H]2CC[C@]2(C)C(c4ccc5ccncc5c4)=CC[C@@H]32)C1 [Compound 22r]
101 to 200 nM

Param item: C[C@]12CC[C@H]3[C@@H](CC=C4C[C@@H](O)CC[C@@]43C)[C@@H]1CC[C@@H]2c1ccc2cn[nH]c2c1 [Compound 13]
> 6000 nM

Param item: CN[C@H]1CC[C@@]2(C)[C@@H](CC[C@@H]3[C@@H]2CC[C@]2(C)[C@@H](c4ccc5ccncc5c4)CC[C@@H]32)C1 [Compound 46]
701 to 2000 nM

----------
Measured On: CDK8 (Homo sapiens, UniProt P49336)
Sequence (P49336 whole entry): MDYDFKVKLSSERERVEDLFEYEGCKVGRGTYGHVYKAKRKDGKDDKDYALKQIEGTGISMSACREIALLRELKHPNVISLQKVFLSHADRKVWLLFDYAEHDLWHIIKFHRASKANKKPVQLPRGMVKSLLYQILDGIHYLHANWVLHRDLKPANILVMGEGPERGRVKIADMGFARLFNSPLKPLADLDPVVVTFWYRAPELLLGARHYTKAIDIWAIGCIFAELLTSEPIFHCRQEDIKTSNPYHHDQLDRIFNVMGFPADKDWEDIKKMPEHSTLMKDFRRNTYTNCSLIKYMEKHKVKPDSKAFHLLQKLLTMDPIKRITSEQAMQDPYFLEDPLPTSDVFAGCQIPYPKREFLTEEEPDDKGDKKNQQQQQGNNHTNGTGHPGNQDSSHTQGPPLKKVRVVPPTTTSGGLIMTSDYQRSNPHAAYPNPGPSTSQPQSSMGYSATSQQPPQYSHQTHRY
Sequence (P24863 whole entry partner): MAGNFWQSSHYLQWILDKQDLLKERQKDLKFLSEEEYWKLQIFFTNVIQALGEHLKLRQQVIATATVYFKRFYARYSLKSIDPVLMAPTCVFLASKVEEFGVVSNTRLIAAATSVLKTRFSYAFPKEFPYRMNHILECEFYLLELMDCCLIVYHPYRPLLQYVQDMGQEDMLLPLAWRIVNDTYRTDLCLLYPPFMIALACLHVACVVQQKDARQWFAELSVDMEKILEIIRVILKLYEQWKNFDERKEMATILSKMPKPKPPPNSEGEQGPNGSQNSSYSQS
Protocol: LANTHASCREEN Eu Kinase Binding Assay (competitive kinase binding, Tracer displacement)
Set-up: purchased INVITROGEN
Condition: displacing the Tracer from binding to the target kinase; read-out: Enzyme IC50
Measured Parameter: IC50

Examples from the recorded data:
>  <Molecule>
CN(C)[C@H]1CC[C@@]2(C)C(=CCC3[C@@H]4CC[C@H](c5ccc6ccncc6c5)[C@@]4(C)CC[C@@H]32)C1 (stereo in doubt)

>  <IC50>
< 0.1 µM

$$$$
>  <Molecule>
C[C@]12CC[C@H](O)CC1=CC[C@@H]1C2CC[C@]2(C)C(c3ccc4cnccc4c3)=CC[C@@H]12 (stereo partly drawn)

>  <IC50>
> 6 µM

$$$$
>  <Molecule>
C[C@]12CC[C@H](O)CC1=CC[C@@H]1[C@@H]2CC[C@]2(C)C(c3ccc4cnncc4c3)=CC[C@@H]12

>  <IC50>
> 6 µM

$$$$
>  <Molecule>
CN(C)[C@@H]1CC[C@@]2(C)[C@@H](CC[C@@H]3[C@@H]2CC[C@]2(C)[C@@H](c4ccc5ccncc5c4)CC[C@@H]32)C1

>  <IC50>
< 0.1 µM

$$$$

What does the record list as IC50 for C[C@]12CC[C@H](N3CCOCC3)C[C@@H]1CC[C@@H]1[C@@H]2CC[C@]2(C)[C@@H](c3ccc4ccncc4c3)CC[C@@H]12 ?
0.101 to 0.2 µM

Param item: C[C@]12CC[C@H]3[C@@H](CC=C4C[C@@H](O)CC[C@@]43C)[C@@H]1CC[C@@H]2c1ccc2ccncc2c1
< 0.1 µM

Param item: CN(C)[C@H]1CC[C@@]2(C)[C@@H](CC[C@@H]3[C@@H]2CC[C@]2(C)[C@@H](c4ccc5ccncc5c4)CC[C@@H]32)C1
< 0.1 µM

Param item: C[C@]12CC[C@H](O)CC1=CC[C@@H]1[C@@H]2CC[C@]2(C)C(c3ccc4[nH]ncc4c3)=CC[C@@H]12
> 6 µM

Param item: C[C@]12CC[C@H](n3ccnn3)C[C@@H]1CC[C@@H]1[C@@H]2CC[C@]2(C)[C@@H](c3ccc4ccncc4c3)CC[C@@H]12
< 0.1 µM
